# Assayed system: CDK8 (CDK8/CycC) (Homo sapiens, UniProt P49336)
# Construct: purchased Invitrogen PV4402
# Sequence (P49336 whole entry): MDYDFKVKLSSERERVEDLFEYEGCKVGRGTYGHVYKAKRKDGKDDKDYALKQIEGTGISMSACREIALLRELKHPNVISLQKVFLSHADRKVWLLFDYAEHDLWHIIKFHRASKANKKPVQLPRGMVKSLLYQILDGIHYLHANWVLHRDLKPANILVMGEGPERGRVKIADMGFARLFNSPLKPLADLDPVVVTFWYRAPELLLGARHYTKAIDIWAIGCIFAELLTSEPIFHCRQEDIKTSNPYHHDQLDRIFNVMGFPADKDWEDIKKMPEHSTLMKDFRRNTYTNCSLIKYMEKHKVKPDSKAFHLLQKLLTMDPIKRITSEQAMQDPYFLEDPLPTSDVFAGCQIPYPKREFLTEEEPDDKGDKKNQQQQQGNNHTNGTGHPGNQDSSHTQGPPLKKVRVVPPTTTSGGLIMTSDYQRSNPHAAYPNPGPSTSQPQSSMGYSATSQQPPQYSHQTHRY
# Sequence (P24863 whole entry partner): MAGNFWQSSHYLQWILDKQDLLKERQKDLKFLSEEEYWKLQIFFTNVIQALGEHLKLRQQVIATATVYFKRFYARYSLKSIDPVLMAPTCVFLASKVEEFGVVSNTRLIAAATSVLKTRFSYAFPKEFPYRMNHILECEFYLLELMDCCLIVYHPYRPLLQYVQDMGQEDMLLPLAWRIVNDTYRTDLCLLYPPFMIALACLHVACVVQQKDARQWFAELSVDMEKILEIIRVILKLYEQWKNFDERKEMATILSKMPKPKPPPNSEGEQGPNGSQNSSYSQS
# Assay info: FRET based Lanthascreen binding competition assay
# Applied conditions: 5 nM CDK8/CycC, 10 nM Alexa647-Tracer, 1% DMSO, 60 min at RT; read-out: IC50 CDK8 binding
pIC50: −log10 of the molar value.
Attribute measured: pIC50

{"Smiles data": "Cn1cc(-c2ccc(-c3cncc4ccc(N5CCNCC5)nc34)cc2)cn1", "pIC50": "6.00 to 6.30"}
{"Smiles data": "CNC(=O)c1ccc2c(N)ncc(-c3ccc(-c4cnn(C)c4)cc3F)c2n1", "pIC50": "7.00 to 8.00"}
{"Smiles data": "Cn1cc(-c2ccc(-c3cncc4ccc(-c5nn[nH]n5)nc34)cc2)cn1", "pIC50": "7.00 to 8.00"}
{"Smiles data": "CC(=O)N1CCN(c2ccc3cncc(-c4ccc(-c5cnn(C)c5)cc4)c3c2)CC1", "pIC50": "6.30 to 7.00"}
{"Smiles data": "N#Cc1ccc2cncc(-c3ccc4c(c3)CS(=O)(=O)N4)c2c1", "pIC50": "7.00 to 8.00"}
{"Smiles data": "CN(C)C(=O)c1ccc2c(N)ncc(-c3ccc4c(c3)CS(=O)(=O)N4)c2n1", "pIC50": "6.30 to 7.00"}
{"Smiles data": "CN1c2ccc(-c3cncc4ccc(-c5ncco5)cc34)cc2CS1(=O)=O", "pIC50": "7.00 to 8.00"}
{"Smiles data": "CNC(=O)c1ccc2c(O)ncc(-c3ccc4c(c3)CS(=O)(=O)N4)c2n1", "pIC50": "6.30 to 7.00"}

Now for another entry.
Query (compound): "O=C(c1ccc2cnccc2n1)N1CCC[C@H]1c1ccc(Cl)cc1" ; field requested: pIC50
> 8.00
